# System: BT-549
# test.name: NCI tumour cell line growth inhibition, 48 h
The source made the active and inactive calls. No stated cut-off is given here; in the data, active = GI50 up to about 1.1 µM and inactive = higher.
measurement.label: GI50

Request: Request the reported GI50 associated with `O=C1Oc2ccccc2C(=O)/C1=C\NC(=S)c1ccncc1`
Response: 31.6 µM (inactive)

Request: Which GI50 is listed for `Cc1c(Cl)cc(C(C)(C)C)c(O)c1Cc1c(C)c(Cl)cc(C(C)(C)C)c1O` ?
Response: 2.81 µM (inactive)

Request: What value of measured GI50 is listed for O=P(O)(O)CC1OC(CO)C(O)C1O (stereo not given) ?
Response: > 100 µM (inactive)

Request: Field request: GI50 | item: `C=CC1=C(C)c2cc3[nH]c(c4c5nc(cc6[nH]c(cc1n2)c(C=O)c6CC)C(C)=C5C(=O)[C@@H]4C(=O)OC)[C@@H](CCC(=O)O)[C@@H]3C`
Response: > 100 µM (inactive)

Request: Request the reported GI50 associated with COC(=O)CCC(C)[C@H]1CCC2C3C(C[C@H](OC(C)=O)[C@@]21C)[C@@]1(C)CCC2(C[C@H]1C[C@H]3OC(C)=O)OOC1(CCCC1)OO2 (stereo not given in full)
Response: 46 µM (inactive)

---

For each of the molecules below, state its GI50.
# System: SK-OV-3
# test.name: NCI tumour cell line growth inhibition, 48 h
Calls of active or inactive are those of the source. Cut-off read from the data, not from the text of the source: active = GI50 up to about 1.1 µM and inactive = higher.

Request: Given `COc1ccc(-c2ncnc(-c3ccc(OC)c(OC)c3)n2)cc1OC` , state its recorded GI50.
Response: > 100 µM (inactive)

Request: May I ask what GI50 has been recorded for `CC(=O)c1[nH]c(Nc2ccc(C)cc2)c(C(=S)Nc2ccccc2)c1N` ?
Response: 34.3 µM (inactive)

Request: Can you look up the measured GI50 of `CC(C)CNc1nc2ncnc(N)c2[nH]1` for me?
Response: > 100 µM (inactive)

Request: May I ask what GI50 has been recorded for `Cc1cc(N(CCC#N)CCC#N)ccc1/C=C1\N=C(c2cc([N+](=O)[O-])ccc2Cl)N(NC(=O)c2ccc(/N=C\c3ccc(N(CCC#N)S(C)(=O)=O)cc3C)cc2)C1=O` ?
Response: > 100 µM (inactive)

---

Assignment: determine reported GI50 for the given molecules.
# System: CCRF-CEM
# test.name: NCI tumour cell line growth inhibition, 48 h
Active and inactive are the calls of the source. No stated cut-off is given here; in the data, active = GI50 up to about 1.1 µM and inactive = higher.

Request: Lab note: need GI50 with CCRF-CEM for entry CSC1(C)C(=O)Nc2c(OCc3ccccc3)cc([N+](=O)[O-])cc21 (configuration not stated) , please look it up.
Response: 84.3 µM (inactive)

Request: Query for CCRF-CEM: what GI50 does the record show for CC12C3C4C1C1C2C3C41CO (configuration not stated) ?
Response: > 100 µM (inactive)

Request: Param readout= GI50; system= CCRF-CEM; entry= `CC(C)(C)c1cc(C(=O)Nc2cc(Br)c(Br)cc2S(N)(=O)=O)cc(C(C)(C)C)c1O` ; returns value.
Response: 4.28 µM (inactive)

Request: What GI50 appears in the records for this molecule with CCRF-CEM? Clc1ccc(OC2CCO2)cc1Cl (configuration not stated)
Response: 48.3 µM (inactive)

Request: Query the reported GI50 for CCRF-CEM; item: `CCCCCCCCCCCCn1[nH]c(C)c(C(=S)SCCCCCCCC)c1=O`
Response: 28.1 µM (inactive)

Request: GI50 of COC(=O)C(C(=O)C(=O)Nc1nc2ccc([N+](=O)[O-])cc2s1)c1nc2ccc(Cl)cc2nc1O (configuration not stated) on CCRF-CEM?
Response: > 100 µM (inactive)

Request: Notebook entry, CCRF-CEM assay: GI50 of `N#CCc1nc(-c2ccccc2)n[nH]1` = ?
Response: > 100 µM (inactive)

Request: So what GI50 did NCCCC(N/C=C1/N=C(c2ccccc2)OC1=O)C(=O)O (configuration not stated) get with CCRF-CEM?
Response: 37.8 µM (inactive)

Request: Give recorded GI50 with CCRF-CEM for the following molecule: `CN(c1ccc(C(=O)c2ccc(N(C)S(C)(=O)=O)cc2)cc1)S(C)(=O)=O`
Response: > 100 µM (inactive)

Request: Recall the recorded GI50 for `COc1ccc(/C=C2\NC(=S)N(/C=C3\C(=O)Oc4ccccc4C3=O)C2=O)cc1OC` with CCRF-CEM and state it.
Response: 45 µM (inactive)

Request: Under CCRF-CEM: GI50 value of `COc1ccc(/C=C2\Sc3nnc(-c4ccccc4)n3N=C2c2cc(F)c(Cl)cc2Cl)cc1OC` ?
Response: 4.98 µM (inactive)

Request: Can you look up GI50 on CCRF-CEM for `O=C(O)c1nc2cc(Cl)ccc2[nH]c1=O` ?
Response: > 100 µM (inactive)

Request: Look up GI50 with CCRF-CEM for this molecule: `O=C1c2ccccc2C(=O)c2nc3ccc(Cl)cc3cc21`
Response: > 100 µM (inactive)

Request: Hi! What's the reported GI50 for `Cn1c(=O)c2nc3sc4c(n3c2n(C)c1=O)C(=O)c1ccccc1C4=O` on CCRF-CEM?
Response: 17.6 µM (inactive)

Request: Find the measured GI50: item `Oc1cccc(-c2nc3ccccc3s2)c1` , target or system CCRF-CEM.
Response: 57 µM (inactive)

Request: Request - read-out GI50 | tested on CCRF-CEM | molecule `OC(c1ccc2c(c1)OCO2)c1ccc2c(c1)OCO2`
Response: > 100 µM (inactive)

Request: Any idea what GI50 came out for `CC1=NC(=O)CNN1C1=NNC2(C(=O)N1)c1ccccc1-c1ccccc12` on CCRF-CEM?
Response: > 100 µM (inactive)

Request: Recall the recorded GI50 for `CCCCCCCCOCC1S(=O)(=O)OCCOS1(=O)=O` with CCRF-CEM and state it.
Response: > 100 µM (inactive)

Request: Under CCRF-CEM: GI50 value of `c1ccc2c(c1)nnn2CNc1ccc(N2CCCCC2)cc1` ?
Response: 77.1 µM (inactive)

Request: Record lookup: for CCRF-CEM, what GI50 belongs to COC(=O)CCC(C)[C@H]1CCC2C3C(C[C@H](OC(C)=O)[C@@]21C)[C@@]1(C)CCC2(C[C@H]1C[C@H]3OC(C)=O)OOC1(CCCC1)OO2 (some centres not stated) ?
Response: 7.89 µM (inactive)

Request: // lookup GI50 | system=CCRF-CEM | key= CN1C2CCC1C(C(O)c1ccccc1[N+](=O)[O-])C(=O)C2 (configuration not stated)
Response: 46.9 µM (inactive)

Request: Give recorded GI50 with CCRF-CEM for the following molecule: `CSC1=N/C(=C\c2c[nH]c3ccccc23)C(=O)N1`
Response: > 100 µM (inactive)

---

# Test system: UACC-62
# test.name: NCI tumour cell line growth inhibition, 48 h
Calls of active or inactive are those of the source. Rule as the data show it: active = GI50 up to about 1.1 µM and inactive = higher.
Consider the following compounds; for each one, report its GI50.

Request: Return reported GI50; argument: `CS/C(=N\C#N)S/C=C/C(=O)c1ccc(Cl)cc1`
Response: 22.9 µM (inactive)

Request: Look up GI50: `CCCCCCCCCCCCNC(=S)OC`
Response: 16.1 µM (inactive)

Request: Value lookup for GI50; key = CC(=O)OCC1OC(n2c3c(c(-c4ccc(Cl)cc4)c(C#N)c2=S)CCCC3)C(OC(C)=O)C(OC(C)=O)C1OC(C)=O (stereo not given)
Response: 23.3 µM (inactive)

Request: Fill in the blank: the reported GI50 of `O=C1C=CC(=O)c2c1cc1ccccc1c2O` is ____.
Response: 6.32 µM (inactive)

Request: So what's the measured GI50 for this one? Cc1ccc(S(=O)(=O)N/N=C2/C3C(CC2(C)C)C2(C)CCCC3(C)C2O)cc1 (stereo not given)
Response: 14.8 µM (inactive)

---

# Test system: BT-549
# test.name: NCI tumour cell line growth inhibition, 48 h
The source made the active and inactive calls. No stated cut-off is given here; in the data, active = GI50 up to about 1.1 µM and inactive = higher.
Task for the reader: assign each of the following molecules its reported GI50.

Request: For BT-549, provide GI50 of `CCOC(=O)c1cn2c(n1)sc1cc(Cl)cc(Cl)c12` please.
Response: > 100 µM (inactive)

Request: Give BT-549 GI50 for Cc1ccc(S(=O)(=O)N(CC(O)c2ccccc2)c2ccccc2F)cc1 (stereo not drawn)
Response: 16.6 µM (inactive)

Request: Lab note: need GI50 for `Cc1ccc(/C=N/Nc2ccccn2)s1` on BT-549, anyone have it?
Response: 81.3 µM (inactive)

Request: Record `COC1(OC)CC(CO)(COc2cc(Cl)nc(N)n2)C1` : what is its GI50 with BT-549?
Response: > 100 µM (inactive)

Request: Give BT-549 GI50 for CC1CC2(OC2C)C(=O)OC2CCN(C)C/C=C(/COC(=O)C1(C)O)C2=O (stereo not drawn)
Response: > 100 µM (inactive)

Request: Form field - read-out: GI50; system: BT-549; submitted item: `Clc1ccc(CCn2ccc3ccccc32)c(Cl)c1`
Response: > 100 µM (inactive)

Request: Kindly state the measured GI50 obtained for CN(C)CC1CCC/C(=C\c2ccc(OC(=O)c3ccc(Cl)cc3)cc2)C1=O (stereo not drawn) with BT-549.
Response: 2.81 µM (inactive)

Request: # value lookup — system BT-549, readout GI50, item FC(F)(F)c1ccc2c(c1)nc1n2C(c2c(Cl)cccc2Cl)SC1 (stereo not drawn)
Response: 23 µM (inactive)

Request: Form field - read-out: GI50; system: BT-549; submitted item: `O=C1Nc2c(Cl)cc(Cl)cc2/C1=N/NC(=O)c1ccccc1O`
Response: 14.5 µM (inactive)

Request: # get_value(readout= GI50, system= BT-549) for `CCOC(=O)c1sc2c(c1O)c(=O)n(-c1ccccc1)c(=S)n2-c1ccccc1`
Response: 56.6 µM (inactive)

Request: // fetch BT-549 GI50 for COC(=O)/C=C\COCC1C2CCC(=O)C21 (stereo not drawn)
Response: 11 µM (inactive)

Request: Test system BT-549; read-out GI50; what value for `O=C1c2ccccc2C(=O)c2[nH]c(=O)c(/C=N/Nc3ccc([N+](=O)[O-])cc3)nc21` ?
Response: 5.08 µM (inactive)

Request: Fill in the recorded GI50 for this molecule, with BT-549 as test system: `CC(=N/NC(=S)N1CCCCC1)/C(=N\NC(=S)N1CCCCC1)c1ccccc1`
Response: 1.91 µM (inactive)

Request: For the record `COc1nc2c(N3CCCC3)nc(N3CCNCC3)nc2nc1NCc1ccccc1` , what value of GI50 is listed for BT-549?
Response: 1.85 µM (inactive)

Request: Param readout= GI50; system= BT-549; entry= `CC(C)(C)C(=O)N(C(=S)OCc1ccccn1)c1ccccc1` ; returns value.
Response: 42.1 µM (inactive)

Request: Lookup: GI50 / BT-549 / COC1OC2COC1(OC)C1OC(C)(C)OC21 (stereo not drawn)
Response: > 100 µM (inactive)

Request: Which GI50 is reported with BT-549 for this entry: `Cc1ccc(C)c2c1NC(=O)/C2=N\Nc1ccccc1[N+](=O)[O-]` ?
Response: > 100 µM (inactive)

Request: Recorded GI50 for `CC1(C)C(=O)C(C)(C)C12SSC1(S2)C(C)(C)C(=O)C1(C)C` with BT-549, please?
Response: > 100 µM (inactive)

Request: Return GI50 measured with BT-549 given this molecule: `FC(F)(F)c1ccc(/N=N/N2CCCC2)cc1`
Response: > 100 µM (inactive)

Request: Reported GI50 for BT-549, given `Clc1cccc(/C=c2\nc(-c3ccccc3)n3c2nc2ccccc23)c1` ?
Response: 88.3 µM (inactive)

Request: Field: GI50 (BT-549). Entry: `O=c1ccc2ccc(OP(=O)(O)O)cc2o1`
Response: > 100 µM (inactive)

Request: Requested read-out GI50, target or system BT-549, entry `NS(=O)(=O)c1cc2c(cc1Cl)N=C(CCC(=O)O)NS2(=O)=O`
Response: > 100 µM (inactive)

Request: Lab request: please report GI50 under test system BT-549 for CCN1CC2=C(OC(N)=C(C#N)C2c2ccc(Cl)cc2)/C(=C/c2ccc(Cl)cc2)C1 (stereo not drawn)
Response: 70.8 µM (inactive)
